# ASSAY_PROCEDURE: folding enthalpy; higher = less favourable; fluorescence melt of hairpins on a sequencing array, two-state fit
# EXPERIMENTAL_CONTEXT: sodium 0.088 M
ASSAY_METRIC: folding enthalpy (kcal/mol)
Answers are plain numbers, in kcal/mol.

Sample answers from the record:
GATCAATGGTTGATC ((((((...))))))    -26.7
GAGTACGGAAACGCACTC ((((.((....)).))))    -31.6
GACACCGAAAGGTAGGTC ((((((....)))..)))    -20.2
GATCCGCTCCGGATC ((((((...))))))    -37.5

Hi! Can you tell me folding enthalpy for each of these sequences?
1. GCGGCAGGAAACCACCGC ((((..(....)..))))
2. GCGAGCTGTCGC ((((....))))

[out]
1: -25.9; 2: -17.8

For every item in the list below, what is its measured folding enthalpy?
1. GTATACGAAAGTAGTAC ((((((....))).)))
2. GCTCGCTCGAAAGAGAGC (((..(((....))))))
3. GAATGGGGAAACCCATTC (((((((....)))))))
4. GTATCCCGAAAGGGCTAC (((.(((....))).)))
5. GATCTACACTTAGATC ((((((....))))))

[out]
1. -11.7
2. -20.8
3. -33.7
4. -22.5
5. -44.7

[in] Hello, please tell me recorded folding enthalpy for this one: GGTGCCGAAAGGCGTACC ((((((....)))..)))
[out] -15.5
